Data credit: patent US20210079015A1

Tested on: HBV
Assay: Anti-HBV assay (inhibition of HBV replication in HepG2.cl42 cells, HBV DNA by qPCR)
Format: cell-based, HBV ayw strain
Details: Hepatitis B virus, 96 h, treated four days, HBV DNA quantified by real time PCR, read-out: HBsAg EC50
pEC50: −log10 of the molar value.
observedProperty: pEC50

In: Note down pEC50 recorded for C[C@H]1c2c(noc2-c2cnn(C)c2)CCN1C(=O)Nc1cc(F)c(F)c(F)c1
Out: ≤ 6.00

In: Note down pEC50 recorded for COc1cccc(-c2onc3c2CN(C(=O)Nc2cc(F)c(F)c(F)c2)[C@@H](C)C3)c1
Out: 6.00 to 7.00

In: Note down pEC50 recorded for C[C@H]1Cc2noc(C3CCCC3)c2CN1C(=O)Nc1cc(F)c(F)c(F)c1
Out: 6.00 to 7.00

In: Note down pEC50 recorded for C[C@H]1Cc2noc(N3CCOCC3=O)c2CN1C(=O)Nc1cc(F)c(F)c(F)c1
Out: > 7.00

In: Note down pEC50 recorded for C[C@H]1c2c(noc2-c2ccc(F)cn2)CCN1C(=O)Nc1cc(F)c(F)c(F)c1
Out: 6.00 to 7.00

In: Note down pEC50 recorded for C[C@H]1Cc2noc(-c3ccc(OC(F)F)cc3)c2CN1C(=O)Nc1cc(F)c(F)c(F)c1
Out: 6.00 to 7.00

In: Note down pEC50 recorded for C[C@H]1Cc2noc(-c3ccc(F)cc3F)c2CN1C(=O)Nc1cc(F)c(F)c(F)c1
Out: > 7.00

In: Note down pEC50 recorded for Cc1nc(-c2onc3c2[C@H](C)N(C(=O)Nc2cc(F)c(F)c(F)c2)CC3)co1
Out: ≤ 6.00

---

Test system: HBV
Experiment: Anti-HBV assay (inhibition of HBV replication in HepG2.cl42 cells, HBV DNA by qPCR)
Format: cell-based, HBV ayw strain
Conditions: Hepatitis B virus, 96 h, treated four days, HBV DNA quantified by real time PCR, read-out: HBsAg EC50
Could you please report measured EC50 for the items listed next?

In: Note down EC50 recorded for C[C@H]1Cc2noc(N3CCCCC3=O)c2CN1C(=O)Nc1ccccc1
Out: 0.1 to 1 µM

In: Note down EC50 recorded for C[C@H]1Cc2noc(-c3cccc(C#N)c3)c2CN1C(=O)Nc1cc(F)c(F)c(F)c1
Out: 0.1 to 1 µM

In: Note down EC50 recorded for C[C@H]1Cc2noc(N3C(=O)CCC3=O)c2CN1C(=O)Nc1cc(F)c(F)c(F)c1
Out: ≥ 1 µM

In: Note down EC50 recorded for C[C@H]1Cc2noc(-c3ccc(F)cc3)c2CN1C(=O)Nc1cc(F)c(F)c(F)c1
Out: 0.1 to 1 µM

In: Note down EC50 recorded for C[C@H]1Cc2noc(-c3ccc(C#N)cc3)c2CN1C(=O)Nc1cc(F)c(F)c(F)c1
Out: 0.1 to 1 µM

In: Note down EC50 recorded for CC1CCN(c2onc3c2CN(C(=O)Nc2cc(F)c(F)c(F)c2)[C@@H](C)C3)C1=O (stereo partly shown)
Out: < 0.1 µM

In: Note down EC50 recorded for CC1Cc2noc(-c3ccc(F)cc3F)c2CN1C(=O)Nc1cc(F)c(F)c(F)c1 (stereo not shown)
Out: 0.1 to 1 µM

In: Note down EC50 recorded for Cc1nc(-c2onc3c2CN(C(=O)Nc2cc(F)c(F)c(F)c2)[C@@H](C)C3)cs1
Out: 0.1 to 1 µM

In: Note down EC50 recorded for C[C@H]1Cc2noc(N3CCCC3=O)c2CN1C(=O)Nc1ccc(F)c(C#N)c1
Out: < 0.1 µM

In: Note down EC50 recorded for C[C@H]1Cc2noc(-c3cccc(Cl)c3)c2CN1C(=O)Nc1cc(F)c(F)c(F)c1
Out: ≥ 1 µM

In: Note down EC50 recorded for C[C@H]1Cc2noc(-c3ccc(OC(F)(F)F)cc3)c2CN1C(=O)Nc1cc(F)c(F)c(F)c1
Out: 0.1 to 1 µM

In: Note down EC50 recorded for Cc1ccccc1-c1onc2c1CN(C(=O)Nc1cc(F)c(F)c(F)c1)[C@@H](C)C2
Out: 0.1 to 1 µM

In: Note down EC50 recorded for O=C(Nc1cc(F)c(F)c(C(F)F)c1)N1CCc2noc(N3CCCOC3=O)c2C1
Out: < 0.1 µM

In: Note down EC50 recorded for C[C@H]1Cc2noc(N3CCC(C)(C)C3=O)c2CN1C(=O)Nc1cc(F)c(F)c(F)c1
Out: < 0.1 µM

In: Note down EC50 recorded for C[C@H]1Cc2noc(-c3ccccc3Cl)c2CN1C(=O)Nc1cc(F)c(F)c(F)c1
Out: 0.1 to 1 µM

In: Note down EC50 recorded for C[C@@H]1Cc2noc(-c3ccc(F)cc3F)c2CN1C(=O)Nc1cc(F)c(F)c(F)c1
Out: 0.1 to 1 µM
